Source of measurements: patent US20140205597A1

# targetUnderTest: T1, purified interference factor(s) from serum of Donor A
# T1 construct: text names Donors 8, 19 and 30
# assayMethodText: Biacore, immobilized interference factor
measuredAttribute: binding vs Reference Sequence (=100%)
I'd appreciate it if you included the unit after the number.

Field: example entries. Status: answers known.
binder	binding vs Reference Sequence (=100%)
SEQ ID NO 46 (VHH, C-terminal tag) VHH: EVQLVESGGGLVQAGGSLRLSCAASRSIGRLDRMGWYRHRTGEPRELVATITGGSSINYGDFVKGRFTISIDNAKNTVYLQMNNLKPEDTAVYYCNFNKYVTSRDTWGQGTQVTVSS	0%
SEQ ID NO 38 (bispecific antibody, Nanobody construct; C-terminal: A) EVQLVESGGGLVQPGGSLRLSCAASGFTFSSYAMSWVRQAPGKGLEWVSGIKSSGDSTRYAGSVKGRFTISRDNAKNTLYLQMNSLRPEDTAVYYCAKSRVSRTGLYTYDNRGQGTLVTVSSGGGGSGGGGSGGGGSGGGGSEVQLVESGGGLVQPGGSLRLSCAASGRTFNNYAMGWFRQAPGKEREFVAAITRSGVRSGVSAIYGDSVKDRFTISRDNAKNTLYLQMNSLRPEDTAVYYCAASAIGSGALRRFEYDYSGQGTLVTVSSA	9%
SEQ ID NO 89 (VHH, L11S, P14A, T110Q, S112G, S113G) VHH: EVQLVESGGGSVQAGGSLRLSCAASRSIGRLDRMGWYRHRPGEPRELVATITGGSSINYGDSVKGRFTISIDNSKNTVYLQMNSLRPEDTAVYYCNFNKYVTSRDTWGQGTLVQVGG	14%

// returns reported binding vs Reference Sequence (=100%) for input SEQ ID NO 85 (VHH, L11S, T110Q, S112G, S113G) VHH: EVQLVESGGGSVQPGGSLRLSCAASRSIGRLDRMGWYRHRPGEPRELVATITGGSSINYGDSVKGRFTISIDNSKNTVYLQMNSLRPEDTAVYYCNFNKYVTSRDTWGQGTLVQVGG
46%

// returns reported binding vs Reference Sequence (=100%) for input SEQ ID NO 86 (VHH, L11S, T110Q) VHH: EVQLVESGGGSVQPGGSLRLSCAASRSIGRLDRMGWYRHRPGEPRELVATITGGSSINYGDSVKGRFTISIDNSKNTVYLQMNSLRPEDTAVYYCNFNKYVTSRDTWGQGTLVQVSS
76%
